Test: Solubility properties
Assay type: physicochemical
Details: water with sodium bicarbonate; water + sodium bicarbonate; read-out: Solubility in water by addition of sodium bicarbonate
Measured property: solubility (µg/mL)
Write the value in µg/mL as a bare number.

Given the entry C=C(CC(=O)c1ccc(C2CCCCC2)cc1)C(=O)O , report its measured solubility. 10000

###

System: carrageenin edema
Experiment: Carrageenin edema test in rats (antiinflammatory)
Format: in vivo
Settings: Rattus norvegicus; 75 mg/kg oral; 3 hrs; read-out: % increase in volume of the paw, mean (m)
Measured property: change in vivo at 75 mg/kg (%)
Write the value in % as a bare number.

Reference set (3 entries):
Smiles record	change in vivo at 75 mg/kg, %
CC(=CC(=O)c1ccccc1)C(=O)Nc1cccc(C(F)(F)F)c1	50
C=C(CC(=O)c1ccc(-c2ccccc2Cl)cc1)C(=O)OC	47
CC(=CC(=O)c1ccc(-c2ccccc2Cl)cc1)C(=O)O	38

Given the entry C=C(CC(=O)c1ccc(-c2ccc(Cl)cc2)cc1)C(=O)O , report its measured change in vivo at 75 mg/kg. 42

Given the entry C=C(CC(=O)c1ccc(-c2ccccc2)cc1)C(=O)O , report its measured change in vivo at 75 mg/kg. 28.8

###

Assay: Solubility properties
Type: physicochemical
Details: propylene glycol
Measured property: Solubility in propylene glycol
The answer consists of two parts: a number and, after it, its unit.

Reference set (3 entries):
Smiles record	Solubility in propylene glycol
CC(=CC(=O)c1ccccc1)C(=O)O	3%
C=C(CC(=O)c1ccc(F)cc1)C(=O)O	10%
C=C(CC(=O)c1ccc(Oc2ccccc2)cc1)C(=O)O	1%

--- query ---
Given the entry C=C(CC(=O)c1ccc(C2CCCCC2)cc1)C(=O)O , report its measured Solubility in propylene glycol. 1%

###

Test: Solubility properties
Type: physicochemical
Settings: N-methyl pyrrolidone
The threshold is 40%. Values of Solubility in N-methyl pyrrolidone beneath it are tagged Met; values meeting or exceeding it are tagged Not met.

Smiles record	Group
C=C(CC(=O)c1ccc(-c2ccccc2)cc1)C(=O)O	Met

Given the entry C=C(CC(=O)c1ccc2c(c1)CCCC2)C(=O)O , would its reported Solubility in N-methyl pyrrolidone be below 40%? Not met

Given the entry C=C(CC(=O)c1ccc(-c2ccccc2Cl)cc1)C(=O)OC , would its reported Solubility in N-methyl pyrrolidone be below 40%? Not met

Given the entry C=C(CC(=O)c1cccc2ccccc12)C(=O)O , would its reported Solubility in N-methyl pyrrolidone be below 40%? Not met

Given the entry CC(=CC(=O)c1ccccc1)C(=O)N1CCOCC1 , would its reported Solubility in N-methyl pyrrolidone be below 40%? Met

Given the entry CC(=CC(=O)c1ccc(-c2ccccc2Cl)cc1)C(=O)O , would its reported Solubility in N-methyl pyrrolidone be below 40%? Met

###

Test: Solubility properties
Type: physicochemical
Details: sodium salt, water; read-out: Solubility in form of sodium salt
Measured property: solubility (µg/mL)
Write the value in µg/mL as a bare number.

Smiles record	Measured property	Quantitative result
C=C(CC(=O)c1ccc(Cl)cc1)C(=O)O	solubility	10000
C=C(CC(=O)c1ccccc1)C(=O)O	solubility	10000
C=C(CC(=O)c1ccc(Oc2ccccc2)cc1)C(=O)O	solubility	100000

--- query ---
Given the entry CC(=CC(=O)c1ccccc1)C(=O)O , report its measured solubility. 10000

###

Assay: Solubility properties
Format: physicochemical
Conditions: dimethyl acetamide
Solubility in NN-dimethyl acetamide: recorded values
Write the value in % as a bare number.

Reference set (10 entries):
Molecule	Solubility in NN-dimethyl acetamide / %
CC(=CC(=O)c1ccccc1)C(=O)N1CCOCC1 [F 1443]	5
CC(=CC(=O)c1ccc(-c2ccccc2)cc1)C(=O)O [F 1448]	25
C=C(CC(=O)c1ccc(OC)c(-c2ccccc2)c1)C(=O)O [F 1497]	30
CC(=CC(=O)c1ccc(-c2ccccc2Cl)cc1)C(=O)O [F 1439]	20
C=C(CC(=O)c1ccc2c(c1)CCCC2)C(=O)O [F 1495]	50
C=C(CC(=O)c1cccc2ccccc12)C(=O)O [F 1494]	50
C=C(CC(=O)c1ccc(C2CCCCC2)cc1)C(=O)O [F 1353]	20
CC(=CC(=O)c1ccccc1)C(=O)Nc1cccc(C(F)(F)F)c1 [F 1442]	40
C=C(CC(=O)c1ccc(-c2ccccc2Cl)cc1)C(=O)OC [F 1440]	60
C=C(CC(=O)c1ccccc1)C(=O)O [F 1350, 2-methylene 4-oxo 4-phenyl butyric acid]	10

Given the entry C=C(CC(=O)c1ccc(-c2ccccc2Cl)cc1)C(=O)O [F 1379] , report its measured Solubility in NN-dimethyl acetamide. 25

Given the entry C=C(CC(=O)c1ccc(-c2ccc(Cl)cc2)cc1)C(=O)O [F 1449] , report its measured Solubility in NN-dimethyl acetamide. 30

###

System: carrageenin edema
Test: Carrageenin edema test in rats (antiinflammatory)
Assay type: in vivo
Details: 75 mg/kg oral; 6 hrs
Measured property: % var. / action (variation of paw volume increase vs controls) (%)
Write the value in % as a bare number.

Reference set (4 entries):
Smiles record	Test system	Quantitative result
CC(=CC(=O)c1ccc(-c2ccccc2Cl)cc1)C(=O)O	carrageenin edema	-28
C=C(CC(=O)c1ccc(-c2ccccc2)cc1)C(=O)O	carrageenin edema	-18
C=C(CC(=O)c1ccc(-c2ccc(Cl)cc2)cc1)C(=O)O	carrageenin edema	-20
CC(=CC(=O)c1ccccc1)C(=O)Nc1cccc(C(F)(F)F)c1	carrageenin edema	-11

--- query ---
carrageenin edema / % var. / action (variation of paw volume increase vs controls) / C=C(CC(=O)c1ccc(-c2ccccc2Cl)cc1)C(=O)OC : value? -9

###

Test: Solubility properties
Assay type: physicochemical
Settings: alcohol / ethanol of 95° GL
Solubility in alcohol of 95° GL: recorded values
Write the value in % as a bare number.

Smiles record	Quantitative result
C=C(CC(=O)c1ccc2c(c1)CCCC2)C(=O)O	8
C=C(CC(=O)c1ccc(OC)c(-c2ccccc2)c1)C(=O)O	6
CC(=CC(=O)c1ccccc1)C(=O)N1CCOCC1	1.5

--- query ---
Given the entry CC(=CC(=O)c1ccccc1)C(=O)Nc1cccc(C(F)(F)F)c1 , report its measured Solubility in alcohol of 95° GL. 30

###

Mean No. of Writhings: recorded values
System: writhings induced by acetic acid
Assay: Writhing test, acetic acid (analgetic)
Assay type: in vivo, male mouse
Conditions: 200 mg/kg by mouth, t + 60 to t + 70 min

Compound	Mean No. of Writhings
CC(=O)Oc1ccccc1C(=O)O [acetylsalicyclic acid, reference compound]	24,7
C=C(CC(=O)c1ccc(-c2ccccc2Cl)cc1)C(=O)O	31,8

Given the entry CC(=CC(=O)c1ccccc1)C(=O)O , report its measured Mean No. of Writhings. 28,0

Given the entry C=C(CC(=O)c1ccc(Cl)cc1)C(=O)O , report its measured Mean No. of Writhings. 26,6

Given the entry C=C(CC(=O)c1ccccc1)C(=O)O , report its measured Mean No. of Writhings. 25,7

###

System: carrageenin edema
Experiment: Carrageenin edema test in rats (antiinflammatory)
Type: in vivo
Details: Rattus norvegicus; 75 mg/kg oral; read-out: % mean variation of the volume of the paw at 3, 4 and 6 hrs
change in vivo at 75 mg/kg: recorded values

Smiles record	Result
C=C(CC(=O)c1ccc(-c2ccc(Cl)cc2)cc1)C(=O)O	-24%
C=C(CC(=O)c1ccc(-c2ccccc2)cc1)C(=O)O	-30%
CC(=CC(=O)c1ccccc1)C(=O)Nc1cccc(C(F)(F)F)c1	-13%
C=C(CC(=O)c1ccc(-c2ccccc2Cl)cc1)C(=O)OC	-15%

Given the entry CC(=CC(=O)c1ccc(-c2ccccc2Cl)cc1)C(=O)O , report its measured change in vivo at 75 mg/kg. -32%

###

Assay: Solubility properties
Assay type: physicochemical
Settings: water; in words
Measured property: Solubility in water

Compound	Result
C=C(CC(=O)c1ccc(OC)c(-c2ccccc2)c1)C(=O)O [F 1497]	insoluble
C=C(CC(=O)c1ccc2c(c1)CCCC2)C(=O)O [F 1495]	insoluble
C=C(CC(=O)c1ccc(F)cc1)C(=O)O [F 1376]	insoluble
C=C(CC(=O)c1cccc2ccccc12)C(=O)O [F 1494]	insoluble

Given the entry C=C(CC(=O)c1ccc(-c2ccccc2Cl)cc1)C(=O)OC [F 1440] , report its measured Solubility in water. insoluble

Given the entry CC(=CC(=O)c1ccc(-c2ccccc2)cc1)C(=O)O [F 1448] , report its measured Solubility in water. insoluble

Given the entry C=C(CC(=O)c1ccc(-c2ccc(Cl)cc2)cc1)C(=O)O [F 1449] , report its measured Solubility in water. insoluble

Given the entry C=C(CC(=O)c1ccc(-c2ccccc2)cc1)C(=O)O [F 1377] , report its measured Solubility in water. insoluble

###

Solubility in ethyl alcohol: recorded values
Experiment: Solubility properties
Format: physicochemical
Conditions: ethyl alcohol / ethanol / alcohol

Molecule	Result
CC(=CC(=O)c1ccccc1)C(=O)O [F 1351, 2-methyl 4-oxo 4-phenyl 2-butenoic acid]	5%
CC(=CC(=O)c1ccc(-c2ccccc2)cc1)C(=O)O [F 1448]	1%
C=C(CC(=O)c1ccccc1)C(=O)O [F 1350, 2-methylene 4-oxo 4-phenyl butyric acid]	3%
C=C(CC(=O)c1cccc2ccccc12)C(=O)O [F 1494]	3%
CC(=CC(=O)c1ccc(-c2ccccc2Cl)cc1)C(=O)Nc1cccc(C(F)(F)F)c1 [F 1441]	6%
C=C(CC(=O)c1ccc(-c2ccc(Br)cc2)cc1)C(=O)O [Example 5]	1%

--- query ---
Given the entry C=C(CC(=O)c1ccc(Oc2ccccc2)cc1)C(=O)O [Example 4] , report its measured Solubility in ethyl alcohol. 3%
